Tested on: Mucor circinelloides 235C7
assay comment: Antifungal MIC80/MFC assay, fungal pathogen panel
*1 amine or outer side, *2 acyl side, *3 side chain or, on linkers, in order; H or OH if unused. Where a SMILES comes first, the peptide text is derived from it. [ ]: non-standard residue; d: D form. X2 = CC[C@H](C)C[C@H](C)C[C@H](C)C[C@H](N[*:1])C(=O)[*:2]; X1 = CC[C@@H](C)[C@@H](O[*:1])C(=O)[*:2]; NMeVal(β-OH) = CN[C@H](C(=O)O)C(C)(C)O; aIle = CC[C@@H](C)[C@H](N)C(=O)O; NMeV = CN[C@H](C(=O)O)C(C)C; Sar = CNCC(=O)O
Kindly state MFC for each of the entries shown.

compound	observed value
C[C@@H]1[C@H](O)[C@@H](C)/C=C/C=C/C=C/C=C/C=C/C=C/C=C/[C@H](O[C@@H]2O[C@H](C)[C@@H](O)[C@H](N)[C@@H]2O)C[C@@H]2O[C@](O)(C[C@@H](O)C[C@@H](O)[C@H](O)CC[C@@H](O)C[C@@H](O)CC(=O)O[C@H]1C)C[C@H](O)[C@H]2C(=O)O	1.25 µM
CC[C@H](C)C[C@H](C)C[C@H](C)C[C@@H]1NC(=O)[C@H](C(C)C)N(C)C(=O)[C@@H]([C@H](C)CC)OC(=O)[C@H](C(C)(C)O)N(C)C(=O)[C@H](CC(C)C)NC(=O)[C@H](C(C)C)N(C)C(=O)[C@H]([C@H](C)CC)NC(=O)[C@@H]2CCCN2C(=O)CN(C)C1=O [Compound 1, persephacin] (cyclo(L[NMeVal(β-OH)][X1][NMeV][X2][Sar]P[aIle][NMeV]))	> 10 µM
CC[C@H](C)C[C@H](C)CCCCCCCCC(=O)N[C@H]1C[C@@H](O)[C@@H](NCCN)NC(=O)[C@@H]2[C@@H](O)CCN2C(=O)[C@H]([C@H](O)CCN)NC(=O)[C@H]([C@H](O)[C@@H](O)c2ccc(O)cc2)NC(=O)[C@@H]2C[C@@H](O)CN2C(=O)[C@H]([C@@H](C)O)NC1=O	> 10 µM

Next compound, MFC to be filled in.
Input CCC(C)n1ncn(-c2ccc(N3CCN(c4ccc(OCC5COC(Cn6cncn6)(c6ccc(Cl)cc6Cl)O5)cc4)CC3)cc2)c1=O (stereo not shown) . Output MFC: > 10 µM

###

Tested on: Curvularia lunata NRRL6409
assay comment: Antifungal MIC80/MFC assay, fungal pathogen panel
*1 amine or outer side, *2 acyl side, *3 side chain or, on linkers, in order; H or OH if unused. Where a SMILES comes first, the peptide text is derived from it. [ ]: non-standard residue; d: D form. X2 = CC[C@H](C)C[C@H](C)C[C@H](C)C[C@H](N[*:1])C(=O)[*:2]; X1 = CC[C@@H](C)[C@@H](O[*:1])C(=O)[*:2]; NMeVal(β-OH) = CN[C@H](C(=O)O)C(C)(C)O; aIle = CC[C@@H](C)[C@H](N)C(=O)O; NMeV = CN[C@H](C(=O)O)C(C)C; Sar = CNCC(=O)O
Kindly state MFC for each of the entries shown.
Please append the unit to your numeric answer.

For orientation, consider the following solved cases.
compound	MFC
C[C@@H]1[C@H](O)[C@@H](C)/C=C/C=C/C=C/C=C/C=C/C=C/C=C/[C@H](O[C@@H]2O[C@H](C)[C@@H](O)[C@H](N)[C@@H]2O)C[C@@H]2O[C@](O)(C[C@@H](O)C[C@@H](O)[C@H](O)CC[C@@H](O)C[C@@H](O)CC(=O)O[C@H]1C)C[C@H](O)[C@H]2C(=O)O	2.5 µM
CC[C@H](C)C[C@H](C)CCCCCCCCC(=O)N[C@H]1C[C@@H](O)[C@@H](NCCN)NC(=O)[C@@H]2[C@@H](O)CCN2C(=O)[C@H]([C@H](O)CCN)NC(=O)[C@H]([C@H](O)[C@@H](O)c2ccc(O)cc2)NC(=O)[C@@H]2C[C@@H](O)CN2C(=O)[C@H]([C@@H](C)O)NC1=O	5 µM

Each compound below has a reported value. Please supply its MFC.
1. CCC(C)n1ncn(-c2ccc(N3CCN(c4ccc(OCC5COC(Cn6cncn6)(c6ccc(Cl)cc6Cl)O5)cc4)CC3)cc2)c1=O (stereo not shown)
2. CC[C@H](C)C[C@H](C)C[C@H](C)C[C@@H]1NC(=O)[C@H](C(C)C)N(C)C(=O)[C@@H]([C@H](C)CC)OC(=O)[C@H](C(C)(C)O)N(C)C(=O)[C@H](CC(C)C)NC(=O)[C@H](C(C)C)N(C)C(=O)[C@H]([C@H](C)CC)NC(=O)[C@@H]2CCCN2C(=O)CN(C)C1=O [Compound 1, persephacin] (cyclo(L[NMeVal(β-OH)][X1][NMeV][X2][Sar]P[aIle][NMeV]))

A)
["5 µM", "0.6 µM"]

###

Tested on: Candida albicans ATCC 10231
assay comment: Antifungal MIC80/MFC assay, fungal pathogen panel
condition details: ATCC10231
*1 amine or outer side, *2 acyl side, *3 side chain or, on linkers, in order; H or OH if unused. Where a SMILES comes first, the peptide text is derived from it. [ ]: non-standard residue; d: D form. X2 = CC[C@H](C)C[C@H](C)C[C@H](C)C[C@H](N[*:1])C(=O)[*:2]; X1 = CC[C@@H](C)[C@@H](O[*:1])C(=O)[*:2]; NMeVal(β-OH) = CN[C@H](C(=O)O)C(C)(C)O; aIle = CC[C@@H](C)[C@H](N)C(=O)O; NMeV = CN[C@H](C(=O)O)C(C)C; Sar = CNCC(=O)O
Kindly state MIC80 for each of the entries shown.
One number for each entry, in µM.

For orientation, consider the following solved cases.
molecule	observed value
C[C@@H]1[C@H](O)[C@@H](C)/C=C/C=C/C=C/C=C/C=C/C=C/C=C/[C@H](O[C@@H]2O[C@H](C)[C@@H](O)[C@H](N)[C@@H]2O)C[C@@H]2O[C@](O)(C[C@@H](O)C[C@@H](O)[C@H](O)CC[C@@H](O)C[C@@H](O)CC(=O)O[C@H]1C)C[C@H](O)[C@H]2C(=O)O	0.6
CC[C@H](C)C[C@H](C)C[C@H](C)C[C@@H]1NC(=O)[C@H](C(C)C)N(C)C(=O)[C@@H]([C@H](C)CC)OC(=O)[C@H](C(C)(C)O)N(C)C(=O)[C@H](CC(C)C)NC(=O)[C@H](C(C)C)N(C)C(=O)[C@H]([C@H](C)CC)NC(=O)[C@@H]2CCCN2C(=O)CN(C)C1=O [Compound 1, persephacin] (cyclo(L[NMeVal(β-OH)][X1][NMeV][X2][Sar]P[aIle][NMeV]))	0.6

Input CC[C@H](C)C[C@H](C)CCCCCCCCC(=O)N[C@H]1C[C@@H](O)[C@@H](NCCN)NC(=O)[C@@H]2[C@@H](O)CCN2C(=O)[C@H]([C@H](O)CCN)NC(=O)[C@H]([C@H](O)[C@@H](O)c2ccc(O)cc2)NC(=O)[C@@H]2C[C@@H](O)CN2C(=O)[C@H]([C@@H](C)O)NC1=O . Output MIC80: 0.03

###

System: Curvularia lunata NRRL6409
assay comment: Antifungal MIC80/MFC assay, fungal pathogen panel
*1 amine or outer side, *2 acyl side, *3 side chain or, on linkers, in order; H or OH if unused. Where a SMILES comes first, the peptide text is derived from it. [ ]: non-standard residue; d: D form. X2 = CC[C@H](C)C[C@H](C)C[C@H](C)C[C@H](N[*:1])C(=O)[*:2]; X1 = CC[C@@H](C)[C@@H](O[*:1])C(=O)[*:2]; NMeVal(β-OH) = CN[C@H](C(=O)O)C(C)(C)O; aIle = CC[C@@H](C)[C@H](N)C(=O)O; NMeV = CN[C@H](C(=O)O)C(C)C; Sar = CNCC(=O)O
property label: MIC80 (µM)
Give bare numbers, in µM.

For orientation, consider the following solved cases.
compound	MIC80 / µM
CCC(C)n1ncn(-c2ccc(N3CCN(c4ccc(OCC5COC(Cn6cncn6)(c6ccc(Cl)cc6Cl)O5)cc4)CC3)cc2)c1=O (stereo not shown) [ITC, itraconazole]	2.5
C[C@@H]1[C@H](O)[C@@H](C)/C=C/C=C/C=C/C=C/C=C/C=C/C=C/[C@H](O[C@@H]2O[C@H](C)[C@@H](O)[C@H](N)[C@@H]2O)C[C@@H]2O[C@](O)(C[C@@H](O)C[C@@H](O)[C@H](O)CC[C@@H](O)C[C@@H](O)CC(=O)O[C@H]1C)C[C@H](O)[C@H]2C(=O)O [AMB, amphotericin B]	0.3
CC[C@H](C)C[C@H](C)C[C@H](C)C[C@@H]1NC(=O)[C@H](C(C)C)N(C)C(=O)[C@@H]([C@H](C)CC)OC(=O)[C@H](C(C)(C)O)N(C)C(=O)[C@H](CC(C)C)NC(=O)[C@H](C(C)C)N(C)C(=O)[C@H]([C@H](C)CC)NC(=O)[C@@H]2CCCN2C(=O)CN(C)C1=O [Compound 1, persephacin] (cyclo(L[NMeVal(β-OH)][X1][NMeV][X2][Sar]P[aIle][NMeV]))	0.3

Next compound, MIC80 to be filled in.
Input CC[C@H](C)C[C@H](C)CCCCCCCCC(=O)N[C@H]1C[C@@H](O)[C@@H](NCCN)NC(=O)[C@@H]2[C@@H](O)CCN2C(=O)[C@H]([C@H](O)CCN)NC(=O)[C@H]([C@H](O)[C@@H](O)c2ccc(O)cc2)NC(=O)[C@@H]2C[C@@H](O)CN2C(=O)[C@H]([C@@H](C)O)NC1=O [CASP, caspofungin] . Output MIC80: 5
